- target: HCMV polymerase (Human cytomegalovirus)
- Construct: made in house; host or cells: recombinant baculovirus-infected SF-9 cells
- Sequence (P08546 whole entry): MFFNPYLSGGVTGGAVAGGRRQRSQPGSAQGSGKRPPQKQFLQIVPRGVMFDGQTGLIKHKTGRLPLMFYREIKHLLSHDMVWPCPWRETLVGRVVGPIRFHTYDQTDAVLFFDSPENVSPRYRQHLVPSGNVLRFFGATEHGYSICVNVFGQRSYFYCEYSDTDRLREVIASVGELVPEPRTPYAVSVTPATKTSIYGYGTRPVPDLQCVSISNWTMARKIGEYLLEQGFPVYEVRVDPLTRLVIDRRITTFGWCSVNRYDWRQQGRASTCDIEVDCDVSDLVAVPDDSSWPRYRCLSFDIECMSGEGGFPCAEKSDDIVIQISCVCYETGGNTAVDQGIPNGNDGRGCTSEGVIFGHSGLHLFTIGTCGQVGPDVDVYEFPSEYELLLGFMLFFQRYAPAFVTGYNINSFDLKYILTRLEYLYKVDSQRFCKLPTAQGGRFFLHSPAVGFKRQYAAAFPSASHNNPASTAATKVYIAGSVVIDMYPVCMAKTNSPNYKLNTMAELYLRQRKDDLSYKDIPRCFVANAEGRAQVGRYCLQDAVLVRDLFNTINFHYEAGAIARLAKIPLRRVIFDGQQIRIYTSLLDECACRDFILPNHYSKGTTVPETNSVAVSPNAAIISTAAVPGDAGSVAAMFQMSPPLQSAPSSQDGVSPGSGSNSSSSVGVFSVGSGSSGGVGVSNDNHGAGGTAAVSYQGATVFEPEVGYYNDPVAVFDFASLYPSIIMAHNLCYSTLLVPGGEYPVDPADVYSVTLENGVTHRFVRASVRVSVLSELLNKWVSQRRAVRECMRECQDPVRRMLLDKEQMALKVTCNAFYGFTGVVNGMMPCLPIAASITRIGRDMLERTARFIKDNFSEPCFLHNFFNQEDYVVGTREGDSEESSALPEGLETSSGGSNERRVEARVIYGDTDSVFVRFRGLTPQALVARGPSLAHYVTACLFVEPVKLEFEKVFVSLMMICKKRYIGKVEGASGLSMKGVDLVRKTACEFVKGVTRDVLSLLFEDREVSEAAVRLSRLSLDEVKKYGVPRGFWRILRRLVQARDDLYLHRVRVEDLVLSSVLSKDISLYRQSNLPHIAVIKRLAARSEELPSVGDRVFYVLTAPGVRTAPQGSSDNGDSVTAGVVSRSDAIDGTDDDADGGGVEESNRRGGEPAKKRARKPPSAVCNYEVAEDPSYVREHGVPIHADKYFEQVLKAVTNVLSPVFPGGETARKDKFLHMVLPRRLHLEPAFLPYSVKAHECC
- assay method text: biochemical
- reported conditions: modified SPA assay: compounds diluted in 100% DMSO, 4.5 mM DTT in polymerase buffer; read-out: polymerase IC50 (μM) HCMV
measure: IC50

Example molecules with recorded IC50:
Q: Entry CN(Cc1cc2c(=O)c(C(=O)NCc3ccc(Cl)cc3)cn(C)c2s1)CC(O)c1ccccc1 (centres unmarked) needs its IC50 filled in; supply it.
Result: < 0.31 µM

Q: Let me know recorded IC50 for CCn1cc(C(=O)NCc2ccc(Cl)cc2)c(=O)c2cc(C#CCOC(=O)c3cccc(CN4CCOCC4)c3)sc21 , thanks.
Result: > 50 µM

Q: Note down IC50 recorded for O=C(NCc1ccc(Cl)cc1)c1cnc2sc(CO)cc2c1O
Result: > 20 µM

***
Q: Please report IC50 for the following molecule: CN(Cc1cc2c(=O)c(C(=O)NCc3ccc(Cl)cc3)cn(C)c2s1)CC(O)c1ccc(O)cc1 (centres unmarked)
Result: < 0.31 µM

Q: Write down IC50 measured for item O=C(NCc1ccc(Cl)cc1)c1cn(CCO)c2sc(CCCO)cc2c1=O
Result: < 0.78 µM

This collection of values is drawn from patent US6495683B2.
